# ASSAYED_TARGET: KPC Enzyme (Klebsiella pneumoniae)
METRIC: IC50 (µM)

These recorded examples may help you get a feel for the data.
COMPOUND	ASSAYED_TARGET	UNIT_NAME	IC50
COc1ccc(N2/C(=N/c3ccc(I)cc3)CC2c2ccc(Cl)cc2)cc1 (stereo not drawn)	KPC Enzyme (Klebsiella pneumoniae)	µM	2.7
c1ccc(/N=C2\CC(c3ccccc3)N2c2ccccc2)cc1 (stereo not drawn)	KPC Enzyme (Klebsiella pneumoniae)	µM	6
ClCc1ccc(C2C/C(=N\c3ccccc3)N2c2ccccc2)cc1 (stereo not drawn)	KPC Enzyme (Klebsiella pneumoniae)	µM	6

[P] CCOc1ccc(N2/C(=N/c3ccc(OC)cc3)CC2c2ccc3ccccc3c2)cc1 (stereo not drawn)
[Q] COc1ccc(N2/C(=N/c3ccc(C(F)(F)F)cc3)CC2c2ccc(Cl)cc2)cc1 (stereo not drawn)
Query block: Two entries are listed, P and Q . Which one carries the higher IC50? Respond using the label that marks the chosen record.
Result block: Q

====

Measured IC50 on OXA-48 Enzyme (Klebsiella pneumoniae) follows.
Sequence (Q6XEC0 23-265, looked up, species assumed): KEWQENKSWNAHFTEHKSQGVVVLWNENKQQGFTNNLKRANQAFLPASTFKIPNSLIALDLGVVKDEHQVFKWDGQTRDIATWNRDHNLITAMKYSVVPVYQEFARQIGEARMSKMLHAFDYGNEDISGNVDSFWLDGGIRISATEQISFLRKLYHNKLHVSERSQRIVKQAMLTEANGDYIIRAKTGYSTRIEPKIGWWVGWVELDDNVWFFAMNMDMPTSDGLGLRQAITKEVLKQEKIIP

MOLECULE	IC50
COc1cccc(N2/C(=N/c3ccccc3)CC2c2ccc(Cl)cc2)c1 (stereo not drawn)	> 50 µM
COc1ccc(N2/C(=N/c3ccc(I)cc3)CC2c2cc(Cl)cc(Cl)c2)cc1 (stereo not drawn)	8.5 µM
COc1ccccc1N1/C(=N/c2ccccc2)CC1c1ccc(Cl)cc1 (stereo not drawn)	> 50 µM
COc1cccc(N2/C(=N/c3ccccc3)CC2c2ccccc2)c1 (stereo not drawn)	> 50 µM
O=C(O)COc1ccc(N2/C(=N/c3ccccc3)CC2c2ccc(Cl)cc2)cc1 (stereo not drawn)	> 50 µM

Note: attention shifts to another entry.
Query block: Given the molecule CCOc1ccc(N2/C(=N/c3ccccc3)CC2c2ccccc2)cc1 (stereo not drawn) , what is its reported IC50?
Result block: > 10 µM

====

# ASSAYED_TARGET: KPC Enzyme (Klebsiella pneumoniae)
# MEASUREMENT_PROTOCOL: Imipenem hydrolysis followed by UV absorbance slope, KPC enzyme
# Format: biochemical
# DETAILS: C 10 μM
METRIC: inhibition at 10 µM (%)

Sample records with inhibition at 10 µM:
COMPOUND	ASSAYED_TARGET	inhibition at 10 µM (%)
COC(=O)c1ccc(C2C/C(=N\c3ccccc3)N2c2ccccc2)cc1 (stereo not drawn)	KPC Enzyme (Klebsiella pneumoniae)	6
COc1ccc(C2C/C(=N\c3ccccc3)N2c2ccc(OC)cc2)cc1 (stereo not drawn)	KPC Enzyme (Klebsiella pneumoniae)	7
COc1ccc(N2/C(=N/c3ccccc3)CC2c2ccc3ccccc3c2)cc1 (stereo not drawn)	KPC Enzyme (Klebsiella pneumoniae)	99

[P] c1ccc(/N=C2\CC(c3ccccc3)N2c2ccc3c(c2)OCO3)cc1 (stereo not drawn)
[Q] COc1ccc(N2/C(=N/c3ccccc3)CC2c2ccc(F)cc2)cc1 (stereo not drawn)
[R] COc1ccc(N2/C(=N/c3ccccc3)CC2c2ccccc2)cc1OC (stereo not drawn)
Query block: rank_up(items): orders items by reported inhibition at 10 µM in ascending numerical order. Please respond with the labels ordered as the question requires.
Result block: P, Q, R

====

The molecules below have reported IC50 for KPC Enzyme (Klebsiella pneumoniae, UniProt Q9F663).

MOLECULE	ASSAYED_TARGET	IC50
COc1ccc(N2/C(=N/c3ccccc3)CC2c2ccc3ccccc3c2)cc1 (stereo not shown)	KPC Enzyme (Klebsiella pneumoniae, UniProt Q9F663)	5 to 7 µM

Query block: Look up IC50 with KPC Enzyme (Klebsiella pneumoniae, UniProt Q9F663) for this molecule: Oc1ccc(N2/C(=N/c3ccccc3)CC2c2ccc(Cl)cc2)cc1 (stereo not shown)
Sequence (Q9F663 25-293, looked up): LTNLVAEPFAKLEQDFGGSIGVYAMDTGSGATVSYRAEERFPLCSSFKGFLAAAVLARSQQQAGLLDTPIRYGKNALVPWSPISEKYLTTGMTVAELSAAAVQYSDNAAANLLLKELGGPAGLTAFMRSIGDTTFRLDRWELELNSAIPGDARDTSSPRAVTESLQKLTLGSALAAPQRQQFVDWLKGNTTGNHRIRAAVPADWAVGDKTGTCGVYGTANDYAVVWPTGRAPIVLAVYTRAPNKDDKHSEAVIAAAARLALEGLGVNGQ
Result block: 5 to 7 µM

Query block: Notebook: pull reported IC50 for KPC Enzyme (Klebsiella pneumoniae, UniProt Q9F663), entry COc1ccc(N2/C(=N/c3ccccc3)CC2c2ccccc2)cc1 (single isomer, unassigned) [Enantiomer 2]
Result block: > 10 µM

Query block: Fill in the recorded IC50 for this molecule, with KPC Enzyme (Klebsiella pneumoniae, UniProt Q9F663) as test system: COc1ccc(N2/C(=N/c3ccccc3)CC2c2ccccc2)cc1 (stereo not shown) [drawing 74]
Result block: ~7 µM
